Just for reference, patent US20120232062A1 is where these values come from.

test: In vivo rat pharmacokinetic studies; settings: plasma, 40 mg/kg; rat, PO 40 mpk, 4 h; read-out: Plasma
Result type: concentration at 4 h

{"Chemical string": "Cn1nc(C(=O)NC2CCN(CCN3CCCC3)CC2)c2ccc(N3CCCCCC3)nc21", "Recorded measurement": "10.3 ng/mL"}

###

tested on: HCV genotype 1b; assay: HCV 1b replicon luciferase assay; type: cell-based; conditions: Hepatitis C virus, Huh-7, 48 h, Table 1; Huh7 HCV 1b replicon, luciferase reporter, 48 hours; read-out: 1b EC50
pEC50: −log10 of the molar value.
Listed next: entries and their corresponding pEC50.
Result type: pEC50

{"Compound": "Cn1nc(-c2nnc(C3CCCCN3CCN3CCCCC3)o2)c2ccc(N3CCCCCCC3)nc21 (stereo not shown) [compound 1326]", "Recorded measurement": 5.32}
{"Compound": "O=C(NC1CCCNC1)c1nn(Cc2ccc(Cl)cc2)c2nc(N3CCCCCC3)ccc12 (stereo not shown) [compound 705]", "Recorded measurement": 5.57}
{"Compound": "CCC(CC)Oc1ccc2c(NC(=O)[C@H]3CC[C@H](N)CC3)nn(C)c2n1 [compound 949]", "Recorded measurement": 5.24}
{"Compound": "COCC1CCCN1CCCc1nn(C)c2nc(N3CCCCCCC3)ccc12 (stereo not shown) [compound 1453]", "Recorded measurement": 5.55}

###

Assay: Liver microsome stability, mouse
Type: in vitro ADME, CD-1 mouse
Details: after 15 min
Text: Metabolic stability assays are designed to measure the stability of a test compound in a variety of assay matrices from human and animal species. From a metabolism perspective, a drug would be relatively stable, have a small first-pass effect, and maintain an effective concentration in blood for a reasonable period of time. […]
Define the label as Yes when mouse liver microsome (MLM), % parent remaining is strictly less than 30 % parent remaining and as No in all remaining cases.

{"Compound": "Cn1nc(C(=O)NC2CCNCC2)c2ccc(N3CCCCCC3)nc21.O=C(O)C(F)(F)F.O=C(O)C(F)(F)F [compound 697]", "Discrete label": "No"}
{"Compound": "Cn1nc(C(=O)NC2CCN(CCN3CCCCC3)CC2)c2ccc(N3CCCCCC3)nc21 [compound 1047]", "Discrete label": "No"}
{"Compound": "CC1CCC(C)N1CCOCc1nn(C)c2nc(N3CCCCCC3)ccc12 (stereo not shown) [compound 1540]", "Discrete label": "No"}
{"Compound": "Cn1nc(CCCN2CCCCC2CO)c2ccc(N3CCCCCCC3)nc21 (stereo not shown) [compound 1456]", "Discrete label": "Yes"}
{"Compound": "CCN1CCC(NC(=O)c2nn(C)c3nc(N4CCCCCC4)ccc23)CC1 [compound 1595]", "Discrete label": "No"}
{"Compound": "Cn1nc(CCCN2CCCC2)c2ccc(N3CCCCCCC3)nc21 [compound 1171]", "Discrete label": "Yes"}
{"Compound": "Cn1nc(C(=O)NC2CCN(CCN3CCCC3)CC2)c2ccc(N3CCCCCC3)nc21 [compound 1597]", "Discrete label": "No"}
{"Compound": "CCC(CC)Oc1ccc2c(C(=O)NC3CCNCC3)n[nH]c2n1 [compound 726]", "Discrete label": "No"}
{"Compound": "CC(C)N1CCC(NC(=O)c2nn(C)c3nc(N4CCCCCC4)ccc23)CC1 [EBP1604]", "Discrete label": "No"}
{"Compound": "CC1CCCCN1CCOCc1nn(C)c2nc(N3CCCCCC3)ccc12 (stereo not shown) [compound 1549]", "Discrete label": "Yes"}
{"Compound": "Cn1nc(C(=O)NC2CCN(CC(F)F)CC2)c2ccc(N3CCCCCC3)nc21 [compound 1110]", "Discrete label": "Yes"}
{"Compound": "Cn1nc(C(=O)NC2CCN(CCN3CCCCC3CO)CC2)c2ccc(N3CCCCCC3)nc21 (stereo not shown) [compound 1559]", "Discrete label": "No"}
{"Compound": "Cn1nc(C(=O)NC2CCN(CCN3CCCCC3)CC2)c2ccc(N3CCCCCC3)nc21 [EBP1047]", "Discrete label": "No"}
{"Compound": "CC1CCCN1CCCc1nn(C)c2nc(N3CCCCCCC3)ccc12 (stereo not shown) [compound 1452]", "Discrete label": "Yes"}
{"Compound": "CCN1CCC(NC(=O)c2nn(C)c3nc(N4CCCCCC4)ccc23)CC1 [EBP1595]", "Discrete label": "No"}
{"Compound": "Cn1nc(C(=O)NC2CCN(CCN3CCCC3)CC2)c2ccc(N3CCCCCC3)nc21 [EBP1597]", "Discrete label": "No"}
